Biological target: human TLR7 (Homo sapiens, UniProt Q9NYK1)
Sequence (Q9NYK1 27-1049): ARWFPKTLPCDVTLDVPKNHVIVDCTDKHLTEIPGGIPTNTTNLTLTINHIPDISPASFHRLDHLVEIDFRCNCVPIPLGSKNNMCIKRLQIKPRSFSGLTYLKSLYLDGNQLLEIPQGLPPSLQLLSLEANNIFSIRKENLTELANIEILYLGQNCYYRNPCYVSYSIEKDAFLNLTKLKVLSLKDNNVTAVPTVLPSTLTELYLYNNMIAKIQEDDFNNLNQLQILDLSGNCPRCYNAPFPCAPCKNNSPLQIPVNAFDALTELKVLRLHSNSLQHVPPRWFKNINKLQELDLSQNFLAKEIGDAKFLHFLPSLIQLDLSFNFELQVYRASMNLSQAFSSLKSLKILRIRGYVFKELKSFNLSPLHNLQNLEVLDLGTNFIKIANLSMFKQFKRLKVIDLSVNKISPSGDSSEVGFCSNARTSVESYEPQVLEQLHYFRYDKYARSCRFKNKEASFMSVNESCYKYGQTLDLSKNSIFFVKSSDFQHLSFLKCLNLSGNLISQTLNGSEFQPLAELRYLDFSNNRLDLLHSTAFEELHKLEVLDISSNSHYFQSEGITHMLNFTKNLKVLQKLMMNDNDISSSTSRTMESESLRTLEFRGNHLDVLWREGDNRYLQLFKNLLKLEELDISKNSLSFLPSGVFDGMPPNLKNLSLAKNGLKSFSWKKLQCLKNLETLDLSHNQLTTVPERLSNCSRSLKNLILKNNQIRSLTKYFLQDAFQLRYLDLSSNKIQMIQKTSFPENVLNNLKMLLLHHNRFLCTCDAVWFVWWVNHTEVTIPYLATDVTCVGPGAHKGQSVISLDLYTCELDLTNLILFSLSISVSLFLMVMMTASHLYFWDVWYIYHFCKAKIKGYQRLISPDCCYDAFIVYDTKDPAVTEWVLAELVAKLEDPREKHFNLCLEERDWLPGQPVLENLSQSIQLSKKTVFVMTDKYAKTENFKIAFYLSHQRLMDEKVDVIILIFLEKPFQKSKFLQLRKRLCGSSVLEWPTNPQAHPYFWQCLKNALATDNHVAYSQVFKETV
Assay: TLR7 inhibition reporter assay (HEK-Blue cells, secreted embryonic alkaline phosphatase reporter)
Settings: HEK-Blue cells overexpressing human TLR7, stimulated with gardiquimod 7.5 μM; read-out: TLR 7 IC50
PARAMETER_MEASURED: IC50 (µM)

Check out these entries, answers already filled in.
> print(dat)
                                   compound  parameter.measured  unit.text  endpoint.value
1  Cn1c(-c2ccc(S(C)(=O)=O)cc2)nc2c(F)cc(C3CCN(C4CC5CCC(C4)N5CC4CC4)CC3)cc21 (single isomer, unassigned) [Example 283]                IC50         µM             4.7
2  COc1ccc(-c2nc3ccc(C4CCN(C5CCN(C6CC6)CC5)CC4)cc3[nH]2)cc1OC                IC50         µM             6.6
3  Cn1c(-c2ccc(S(C)(=O)=O)cc2)nc2cc(C3CCN(C4CC5CCC(C4)N5CC4CC4)CC3)c(F)cc21 (single isomer, unassigned) [Example 249]                IC50         µM            21.5
4  COc1ccc(-c2nc3c(C)cc(C4CC5CCC(C4)N5C4CCN(C5CC5)CC4)cc3n2C)cc1OC (stereo not shown)                IC50         µM              20
5  Cc1cc(C2CCN(C3CC4CCC(C3)N4CC(C)C)CC2)cc2[nH]c(-c3ccc(S(C)(=O)=O)c(F)c3)nc12 (stereo not shown)                IC50         µM             7.6
6  CC(C)CN1C2CCC1CC(N1CCC(c3cc(F)c4nc(-c5ccc(S(C)(=O)=O)cc5)n(C)c4c3)CC1)C2 (stereo not shown) [Example 285]                IC50         µM             4.8
7  Cc1cc(-c2ccc(CN3CCC(N4CCCC4)CC3)cc2)cc2c1nc(-c1ccc(S(C)(=O)=O)cc1)n2C                IC50         µM             0.9
8  Cn1c(-c2ccc(S(C)(=O)=O)cc2)nc2cc(C3CCN(C4CC5CCC(C4)N5C4CCC4)CC3)c(F)cc21 (stereo not shown)                IC50         µM            19.5
9  Cc1cc(-c2ccc(CN3C[C@@H]4CN(CC(C)C)C[C@@H]4C3)cc2)cc2c1nc(-c1ccc(S(C)(=O)=O)cc1)n2C                IC50         µM             6.7

(P) Cc1cc(-c2cc(F)c(CN3CCC(N(C)C)CC3)c(F)c2)cc2c1nc(-c1ccc(S(C)(=O)=O)cc1)n2C
(Q) COCCN1C2CCC1CC(N1CCC(c3cc4c(cc3F)nc(-c3ccc(S(C)(=O)=O)cc3)n4C)CC1)C2 (single isomer, unassigned) [Example 238]
## Task Between P and Q , which one shows the smaller IC50 number? State the label of the item chosen.
## Result P

====

# pIC50 values compiled below
Target: human TLR8 (Homo sapiens)
Sequence (Q9NR97 27-1041): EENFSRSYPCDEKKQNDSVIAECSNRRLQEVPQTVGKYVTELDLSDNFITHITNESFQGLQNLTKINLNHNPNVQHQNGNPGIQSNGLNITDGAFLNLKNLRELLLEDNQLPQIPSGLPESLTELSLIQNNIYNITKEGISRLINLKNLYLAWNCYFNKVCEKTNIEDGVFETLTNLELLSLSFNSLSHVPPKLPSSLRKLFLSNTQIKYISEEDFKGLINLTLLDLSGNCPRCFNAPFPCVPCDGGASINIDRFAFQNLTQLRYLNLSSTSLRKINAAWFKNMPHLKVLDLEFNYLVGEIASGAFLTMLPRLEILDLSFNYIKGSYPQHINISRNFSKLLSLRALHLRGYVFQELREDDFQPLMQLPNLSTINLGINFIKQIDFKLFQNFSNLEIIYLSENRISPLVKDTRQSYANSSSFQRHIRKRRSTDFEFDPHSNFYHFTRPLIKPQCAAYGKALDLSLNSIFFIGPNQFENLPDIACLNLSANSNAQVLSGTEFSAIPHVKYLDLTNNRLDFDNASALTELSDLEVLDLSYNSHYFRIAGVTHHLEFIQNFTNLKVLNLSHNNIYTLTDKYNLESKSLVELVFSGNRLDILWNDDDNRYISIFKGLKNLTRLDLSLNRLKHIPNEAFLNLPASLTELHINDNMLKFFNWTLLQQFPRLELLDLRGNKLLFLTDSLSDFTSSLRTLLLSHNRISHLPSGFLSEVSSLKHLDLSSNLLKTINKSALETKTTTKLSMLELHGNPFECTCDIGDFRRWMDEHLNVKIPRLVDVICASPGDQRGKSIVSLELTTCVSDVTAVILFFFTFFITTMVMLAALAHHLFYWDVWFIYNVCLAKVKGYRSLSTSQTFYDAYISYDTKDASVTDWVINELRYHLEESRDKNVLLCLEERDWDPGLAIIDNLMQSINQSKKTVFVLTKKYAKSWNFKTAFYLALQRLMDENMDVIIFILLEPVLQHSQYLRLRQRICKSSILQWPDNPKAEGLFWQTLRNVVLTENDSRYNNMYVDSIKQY
Assay: TLR8 inhibition reporter assay (HEK-Blue cells, secreted embryonic alkaline phosphatase reporter)
Details: HEK-Blue cells overexpressing human TLR8, stimulated with R848 15.9 μM; read-out: TLR 8 IC50
pIC50: −log10 of the molar value.

Worked examples, 5 compounds total:
> print(dat)
                                   compound  parameter.measured  endpoint.value
1  COc1ccc(-c2nc3ccc(C4CCN(C5CCN(C(C)C)CC5)CC4)cc3n2C)cc1OC               pIC50            5.96
2  COc1ccc(-c2nc3cc(C4CCN(C5CCN(CC(C)C)CC5)CC4)ccc3n2C)cc1OC               pIC50          < 4.30
3  Cc1cc(-c2ccc(C3CCN(C4CCN(C5CC5)CC4)CC3)cc2)cc2c1nc(-c1ccc(S(C)(=O)=O)cc1)n2C               pIC50            5.92
4  CC(C)N1CCCC(N2CCC(c3cc(F)c4nc(-c5ccc(S(C)(=O)=O)cc5)n(C)c4c3)CC2)CC1 (single isomer, unassigned) [Example 294]               pIC50          < 4.30
5  CC(C)CN1C2CCC1CC(N1CCC(c3cc4nc(-c5ccc(S(C)(=O)=O)cc5)n(C)c4cc3F)CC1)C2 (centres unmarked) [Example 247]               pIC50          < 4.30

## Task Look up pIC50 for this compound: CC(C)CN1CCC(N2CCC(c3cc(F)c4nc(-c5ccc(S(C)(=O)=O)cc5)n(C)c4c3)CC2)CC1
## Result < 4.30

## Task Record request: pIC50 value, item Cn1c(-c2ccc(S(C)(=O)=O)cc2)nc2c(F)c(C3CCN(C4CCN(C5CCOCC5)CC4)CC3)ccc21
## Result < 4.30

## Task Look up pIC50 for this compound: Cc1cc(C2CCN(C3CCCN(C4CCC4)CC3)CC2)cc2c1nc(-c1ccc(S(C)(=O)=O)cc1)n2C (single isomer, unassigned) [Example 111]
## Result < 4.30

## Task // query pIC50 value for entry COc1ccc(-c2nc3ccc(C4CCN(C5CCN(C6CC6)CC5)CC4)cc3n2C)cc1OC
## Result < 4.30

## Task pIC50 for CCn1c(-c2ccc(OC)c(OC)c2)nc2ccc(C3CCN(C4CCN(CC(C)C)CC4)CC3)cc21 ?
## Result 4.34

## Task Using the record for CCn1c(-c2ccc(OC)c(OC)c2)nc2cc(C3CCN(C4CCN(CC(C)C)CC4)CC3)ccc21 , report its pIC50.
## Result 5.80
